Test: total protein half-life in vivo (active degradation + dilution); higher = more stable protein
Conditions: E. coli NCM3722 delta-clpP delta-lon delta-hslV; growth: N-lim chemostat; doubling time 6 h
measured_endpoint: total protein half-life in vivo (h)
Express the result in h but write the number alone.

• MSDTTELVDLAVIFPDLEIELKYACADNITGKAIYQQARCLLHKDAITALAKSISIAQLSGLQLVIYDAYRPQQAQAMLWQACPDPQYVVDVTVGSNHSRGTAIDLTLRDEHGNILDMGAGFDEMHERSHAYHPSVPPAAQRNRLLLNAIMTGGGFVGISSEWWHFELPQAASYPLLADQFSCFISPGTQHVS = 5.51

Next, consider the following sequence.
Value of total protein half-life in vivo reported for the sequence MALLEICCYSMECALTAQQNGADRVELCAAPKEGGLTPSLGVLKSVRQRVTIPVHPIIRPRGGDFCYSDGEFAAILEDVRTVRELGFPGLVTGVLDVDGNVDMPRMEKIMAAAGPLAVTFHRAFDMCANPLYTLNNLAELGIARVLTSGQKSDALQGLSKIMELIAHRDAPIIMAGAGVRAENLHHFLDAGVLEVHSSAGAWQASPMRYRNQGLSMSSDEHADEYSRYIVDGAAVAEMKGIIERHQAK is 5.29

====

Assay: total protein half-life in vivo (active degradation + dilution); higher = more stable protein
Conditions: E. coli NCM3722 delta-hslV; growth: N-lim chemostat; doubling time 6 h
Threshold check on total protein half-life in vivo: at or above 4 h gives t, strictly below gives f.

Study these solved cases before continuing.
* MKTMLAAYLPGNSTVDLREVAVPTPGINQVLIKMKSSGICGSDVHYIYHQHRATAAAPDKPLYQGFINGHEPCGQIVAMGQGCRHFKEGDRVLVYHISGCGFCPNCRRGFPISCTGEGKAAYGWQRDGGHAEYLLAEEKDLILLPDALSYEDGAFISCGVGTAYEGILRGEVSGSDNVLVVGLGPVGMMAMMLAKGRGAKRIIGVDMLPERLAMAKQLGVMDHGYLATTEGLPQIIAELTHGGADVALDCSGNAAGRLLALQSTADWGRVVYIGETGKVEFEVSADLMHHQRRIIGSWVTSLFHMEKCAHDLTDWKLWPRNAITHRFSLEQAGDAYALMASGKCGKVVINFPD | f
* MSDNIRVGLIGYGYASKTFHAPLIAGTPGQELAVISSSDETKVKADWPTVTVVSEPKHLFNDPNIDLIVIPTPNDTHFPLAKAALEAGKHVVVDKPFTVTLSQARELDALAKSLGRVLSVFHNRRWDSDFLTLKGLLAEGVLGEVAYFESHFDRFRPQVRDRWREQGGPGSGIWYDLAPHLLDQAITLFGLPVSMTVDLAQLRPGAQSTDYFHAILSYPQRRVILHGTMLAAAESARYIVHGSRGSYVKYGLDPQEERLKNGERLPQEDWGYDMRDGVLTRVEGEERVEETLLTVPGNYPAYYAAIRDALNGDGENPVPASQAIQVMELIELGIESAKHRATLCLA | t
* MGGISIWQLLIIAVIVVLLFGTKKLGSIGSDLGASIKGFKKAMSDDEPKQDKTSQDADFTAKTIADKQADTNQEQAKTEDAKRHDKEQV | t
* MSTEKEKMIAGELYRSADETLSRDRLRARQLIHRYNHSLAEEHTLRQQILADLFGQVTEAYIEPTFRCDYGYNIFLGNNFFANFDCVMLDVCPIRIGDNCMLAPGVHIYTATHPIDPVARNSGAELGKPVTIGNNVWIGGRAVINPGVTIGDNVVVASGAVVTKDVPDNVVVGGNPARIIKKL | f
* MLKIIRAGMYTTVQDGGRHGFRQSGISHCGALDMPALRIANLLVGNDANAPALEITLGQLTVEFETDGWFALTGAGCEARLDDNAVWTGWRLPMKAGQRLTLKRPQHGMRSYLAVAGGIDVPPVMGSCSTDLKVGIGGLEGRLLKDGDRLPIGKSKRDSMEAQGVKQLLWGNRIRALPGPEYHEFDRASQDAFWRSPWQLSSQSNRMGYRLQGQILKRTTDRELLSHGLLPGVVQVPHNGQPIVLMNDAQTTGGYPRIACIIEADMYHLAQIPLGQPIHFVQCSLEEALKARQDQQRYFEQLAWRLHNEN | t

Check this sequence for total protein half-life in vivo at or above 4 h: MKKIGVAGLQREQIKKTIEATAPGCFEVFIHNDMEAAMKVKSGQLDYYIGACNTGAGAALSIAIAVIGYNKSCTIAKPGIKAKDEHIAKMIAEGKVAFGLSVEHVEHAIPMLINHLK t

====

Collected total protein half-life in vivo values appear next to each entry.
Assay: total protein half-life in vivo (active degradation + dilution); higher = more stable protein
Settings: wild type E. coli NCM3722; growth: N-lim chemostat; doubling time 6 h

• MQARVKWVEGLTFLGESASGHQILMDGNSGDKAPSPMEMVLMAAGGCSAIDVVSILQKGRQDVVDCEVKLTSERREEAPRLFTHINLHFIVTGRDLKDAAVARAVDLSAEKYCSVALMLEKAVNITHSYEVVAA [P0ADX1] = 4.88 h
• MKVLTVFGTRPEAIKMAPLVHALAKDPFFEAKVCVTAQHREMLDQVLKLFSIVPDYDLNIMQPGQGLTEITCRILEGLKPILAEFKPDVVLVHGDTTTTLATSLAAFYQRIPVGHVEAGLRTGDLYSPWPEEANRTLTGHLAMYHFSPTETSRQNLLRENVADSRIFITGNTVIDALLWVRDQVMSSDKLRSELAANYPFIDPDKKMILVTGHRRESFGRGFEEICHALADIATTHQDIQIVYPVHLNPNVREPVNRILGHVKNVILIDPQEYLPFVWLMNHAWLILTDSGGIQEEAPSLGKPVLVMRDTTERPEAVTAGTVRLVGTDKQRIVEEVTRLLKDENEYQAMSRAHNPYGDGQACSRILEALKNNRISL = 4.16 h

Now look at this one.
Record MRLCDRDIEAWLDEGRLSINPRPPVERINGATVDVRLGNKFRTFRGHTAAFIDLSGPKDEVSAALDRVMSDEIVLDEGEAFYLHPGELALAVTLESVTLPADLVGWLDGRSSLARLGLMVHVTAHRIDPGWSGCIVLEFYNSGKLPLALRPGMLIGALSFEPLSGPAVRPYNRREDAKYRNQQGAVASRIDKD . Reported total protein half-life in vivo: 3.17 h

====

Assay: total protein half-life in vivo (active degradation + dilution); higher = more stable protein
Settings: wild type E. coli NCM3722; growth: N-lim chemostat; doubling time 12 h
measured_endpoint: total protein half-life in vivo
Returns: string containing the number followed by the unit.

Example results:
• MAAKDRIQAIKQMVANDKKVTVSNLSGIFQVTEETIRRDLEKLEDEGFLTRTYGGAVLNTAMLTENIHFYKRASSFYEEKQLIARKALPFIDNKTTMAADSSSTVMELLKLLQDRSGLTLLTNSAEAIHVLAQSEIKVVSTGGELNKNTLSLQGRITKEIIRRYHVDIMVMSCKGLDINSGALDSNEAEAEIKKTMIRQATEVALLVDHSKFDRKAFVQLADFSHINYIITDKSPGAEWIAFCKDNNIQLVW = 9.92 h
• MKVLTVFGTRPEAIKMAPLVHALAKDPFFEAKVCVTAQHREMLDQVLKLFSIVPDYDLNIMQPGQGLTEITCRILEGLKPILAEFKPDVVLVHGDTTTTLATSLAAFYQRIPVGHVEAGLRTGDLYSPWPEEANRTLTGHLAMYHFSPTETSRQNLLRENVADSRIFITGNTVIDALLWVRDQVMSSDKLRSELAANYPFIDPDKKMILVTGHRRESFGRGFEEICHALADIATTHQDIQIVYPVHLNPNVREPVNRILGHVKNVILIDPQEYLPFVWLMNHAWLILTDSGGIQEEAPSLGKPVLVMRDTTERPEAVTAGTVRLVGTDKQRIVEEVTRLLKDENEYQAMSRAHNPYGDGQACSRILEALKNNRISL = 8.18 h

With those in mind, consider the next sequence.
Lab note: MAKSLFRALVALSFLAPLWLNAAPRVITLSPANTELAFAAGITPVGVSSYSDYPPQAQKIEQVSTWQGMNLERIVALKPDLVIAWRGGNAERQVDQLASLGIKVMWVDATSIEQIANALRQLAPWSPQPDKAEQAAQSLLDQYAQLKAQYADKPKKRVFLQFGINPPFTSGKESIQNQVLEVCGGENIFKDSRVPWPQVSREQVLARSPQAIVITGGPDQIPKIKQYWGEQLKIPVIPLTSDWFERASPRIILAAQQLCNALSQVD gave total protein half-life in vivo of 12.1 h

====

// reported total protein half-life in vivo per item
Test: total protein half-life in vivo (active degradation + dilution); higher = more stable protein
Conditions: wild type E. coli NCM3722; growth: P-lim chemostat; doubling time 12 h
Reply with just the number (in h).

- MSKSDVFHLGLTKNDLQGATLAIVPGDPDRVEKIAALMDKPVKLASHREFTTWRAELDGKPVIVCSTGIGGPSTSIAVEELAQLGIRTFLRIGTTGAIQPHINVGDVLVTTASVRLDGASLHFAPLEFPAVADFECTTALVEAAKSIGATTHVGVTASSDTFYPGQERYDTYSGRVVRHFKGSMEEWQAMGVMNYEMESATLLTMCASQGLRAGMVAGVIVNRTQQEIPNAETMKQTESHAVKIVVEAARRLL: 12.4

For this sequence ( MKRAPLITGLLLISTSCAYASSGGCGADSTSGATNYSSVVDDVTVNQTDNVTGREFTSATLSSTNWQYACSCSAGKAVKLVYMVSPVLTTTGHQTGYYKLNDSLDIKTTLQANDIPGLTTDQVVSVNTRFTQIKNNTVYSAATQTGVCQGDTSRYGPVNIGANTTFTLYVTKPFLGSMTIPKTDIAVIKGAWVDGMGSPSTGDFHDLVKLSIQGNLTAPQSCKINQGDVIKVNFGFINGQKFTTRNAMPDGFTPVDFDITYDCGDTSKIKNSLQMRIDGTTGVVDQYNLVARRRSSDNVPDVGIRIENLGGGVANIPFQNGILPVDPSGHGTVNMRAWPVNLVGGELETGKFQGTATITVIVR ), measured total protein half-life in vivo is 13.3

Reference source: the supplement of paper PMC11246515
